# System: Key Broadleaf Weed and Crop Species
# measurement-protocol: Post-emergent Test II herbicidal activity (Table 5)
# Format: in vivo
# stated-conditions: post-emergence, 336 h; AMARE: redroot pigweed (Amaranthus retroflexus); 70 g ai/ha; post-emergent; 14 days after application; read-out: Visual Growth Reduction (%) 14 Days After Application AMARE
parameter: pest or weed control at 70 g/ha

Query block: For the record "COc1c(N)nc(-c2ccc(Br)c(F)c2)nc1C(=O)O" , what value of pest or weed control at 70 g/ha is listed for Key Broadleaf Weed and Crop Species?
Result block: 95 to 100%

Query block: For the record "Nc1cc(-c2cc(F)c(I)cc2F)nc(C(=O)O)c1Cl" , what value of pest or weed control at 70 g/ha is listed for Key Broadleaf Weed and Crop Species?
Result block: 95 to 100%

Query block: For the record "C=Cc1c(N)nc(-c2ccc(C#N)cc2F)nc1C(=O)O" , what value of pest or weed control at 70 g/ha is listed for Key Broadleaf Weed and Crop Species?
Result block: 0 to 29%

Query block: For the record "COC(=O)c1nc(-c2ccc(I)c(F)c2)c(Cl)c(N)c1Cl" , what value of pest or weed control at 70 g/ha is listed for Key Broadleaf Weed and Crop Species?
Result block: 85 to 94%

Query block: For the record "COC(=O)c1nc(-c2cc(F)c(C#N)cc2F)nc(N)c1OC" , what value of pest or weed control at 70 g/ha is listed for Key Broadleaf Weed and Crop Species?
Result block: 0 to 29%

Query block: For the record "C#Cc1ccc(-c2cc(N)c(Cl)c(C(=O)OC)n2)cc1" , what value of pest or weed control at 70 g/ha is listed for Key Broadleaf Weed and Crop Species?
Result block: 95 to 100%

Query block: For the record "COC(=O)c1nc(-c2cc(F)c(I)cc2F)c(Br)c(N)c1Cl" , what value of pest or weed control at 70 g/ha is listed for Key Broadleaf Weed and Crop Species?
Result block: 85 to 94%

Query block: For the record "Nc1c(Cl)c(C(=O)O)nc(-c2ccc(Br)c(F)c2)c1Cl" , what value of pest or weed control at 70 g/ha is listed for Key Broadleaf Weed and Crop Species?
Result block: 95 to 100%

Query block: For the record "C#Cc1ccc(-c2nc(C(=O)OC)c(C=C)c(N)c2F)cc1" , what value of pest or weed control at 70 g/ha is listed for Key Broadleaf Weed and Crop Species?
Result block: 0 to 29%

Query block: For the record "Nc1c(F)c(-c2cc(F)c(Br)cc2F)nc(C(=O)O)c1Cl" , what value of pest or weed control at 70 g/ha is listed for Key Broadleaf Weed and Crop Species?
Result block: 95 to 100%

Query block: For the record "COC(=O)c1nc(-c2cc(F)c(C#N)cc2F)cc(N)c1Cl" , what value of pest or weed control at 70 g/ha is listed for Key Broadleaf Weed and Crop Species?
Result block: 95 to 100%

Query block: For the record "COC(=O)c1nc(-c2ccc(C#N)c(F)c2)c(C)c(N)c1Cl" , what value of pest or weed control at 70 g/ha is listed for Key Broadleaf Weed and Crop Species?
Result block: 0 to 29%

Query block: For the record "C=Cc1c(C(=O)O)nc(-c2ccc(C(F)(F)F)c(F)c2F)c(F)c1N" , what value of pest or weed control at 70 g/ha is listed for Key Broadleaf Weed and Crop Species?
Result block: 95 to 100%

Query block: For the record "C#Cc1ccc(-c2nc(C(=O)OC)c(Cl)c(N)c2Cl)cc1" , what value of pest or weed control at 70 g/ha is listed for Key Broadleaf Weed and Crop Species?
Result block: 95 to 100%
